# Tested on: P93_24
# TEST_SUMMARY: qHTS profiling for inhibitors of Plasmodium falciparum proliferation (AID 504749); further: nearly all actives have a fitted effect of over 60% in size
# CONDITION_SUMMARY: P. falciparum in erythrocytes, SYBR Green DNA, 72 h; series mostly up to 28.7 µM
Inconclusive results are not listed. Active and inactive are the calls of the source. The call rests on the fitted dose curve; in most records, active means well fitted inhibition curve with a large enough effect; inconclusive means small, poorly fitted or top-dose-only effect; inactive means flat fitted curve, though single readings scatter.
A correct response names exactly one class from active, inactive

Illustrative cases are given below, each with its answer.
COMPOUND	LABEL_VALUE
CC([C@H](O)c1ccccc1)N(C)C (stereo partly specified)	inactive
CO[C@@H](COC(N)=O)C1=C(N2CC2)C(=O)C(C)=C(N2CC2)C1=O	active
ClC1=C(Cl)C2(Cl)C3C4CC(C5OC45)C3C1(Cl)C2(Cl)Cl (stereo unspecified)	inactive
COc1ccc2c(c1OC)CN1CCc3cc4c(cc3[C@H]1C2)OCO4	active
CNC(C)[C@@H](O)c1ccccc1 (stereo partly specified)	inactive

Test call, this compound: Oc1ccc2c3c1O[C@H]1[C@@H](O)CC[C@@]4(O)C(C2)N(CC2CCC2)CCC314 (stereo partly specified)
inactive

----------
# Test system: GB4
# TEST_SUMMARY: qHTS profiling for inhibitors of Plasmodium falciparum proliferation (AID 504749); further: nearly all actives have a fitted effect of over 60% in size
# CONDITION_SUMMARY: P. falciparum in erythrocytes, SYBR Green DNA, 72 h; series mostly up to 28.7 µM
Results filed as inconclusive are left out. Calls of active or inactive are those of the source. The call rests on the fitted dose curve; in most records, active means well fitted inhibition curve with a large enough effect; inconclusive means small, poorly fitted or top-dose-only effect; inactive means flat fitted curve, though single readings scatter.
READOUT_LABEL: outcome

Before answering, review these 4 worked examples.
COMPOUND	outcome
CNC[C@H](O)c1ccc(O)cc1	inactive
CC(C)(O)C1C2OC(=O)C1[C@]1(O)C[C@H]3O[C@]34C(=O)O[C@H]2[C@]14C (stereo not given in full) (tested in a mixture with another compound)	inactive
CC(C)c1c(CN(C)[C@@H](C)Cc2ccccc2)n(C)n(-c2ccccc2)c1=O	inactive
C[C@H]1CN(C2CCC(C#N)(c3ccc(F)cc3)CC2)CC[C@@]1(C(=O)O)c1ccccc1 (stereo not given in full)	inactive

Attention now turns to another entry.
I have this compound here, `C#CCN(C)[C@@H](C)Cc1ccccc1` , and I need its recorded outcome.
inactive

----------
# TEST_SUMMARY: OV-SAHO Cancer Cell Toxicity qHTS against the NCATS CANVASS Library (AID 1347348); further: nearly all actives have a fitted effect of over 55% in size
# CONDITION_SUMMARY: OV-SAHO viability, CellTiter-Glo luminescence, 72 h; series mostly up to 38.3 µM
Inconclusive results are not listed. Calls of active or inactive are those of the source. Calls come from the whole dose curve; as a rule, active = well fitted cell-killing curve with a large enough effect; inconclusive = small, poorly fitted or top-dose-only effect; inactive = flat fitted curve, though single readings scatter. Starred links: 1 amine or outer side, 2 acyl side, 3 side chain; linkers in the order of their positions; H or OH if unused. Positions of bridges follow the written chain, without caps; N, C: chain ends. Non-standard residues stand in square brackets, D forms with d. Residues, ends and D or L forms follow the SMILES beside them. ξ: configuration not given here. *: point of attachment. X3 = C[C@@H](Oc1ccc([C@H](N[*:1])C(=O)[*:2])cc1)[C@]1(/C=C\C(=O)[*:3])CO1; d(aIle) = CC[C@H](C)[C@@H](N)C(=O)O; X2 = CC(C)[C@@H](O)C(C)C(=O)*; ξNMeF = CNC(Cc1ccccc1)C(=O)O; ξT = CC(O)C(N)C(=O)O; ξS = NC(CO)C(=O)O
A correct response names exactly one class from true = active, false = inactive

MOLECULE	LABEL_VALUE
C=CC(C)(C)[C@@]12C[C@H]3C(=O)N/C(=C/c4cnc[nH]4)C(=O)N3[C@@H]1Nc1ccccc12	false
CCCC[C@@H]1CC[C@H]2CCCC(CCCO)N12 (stereo partly specified)	false
CC[C@H](C)[C@H]1NC(=O)[C@@H](NC(=O)C(C)[C@H](O)C(C)C)[C@@H](C)OC(=O)C2COC(=O)CNC(=O)/C=C\[C@]3(CO3)[C@@H](C)Oc3ccc(cc3)[C@H](NC1=O)C(=O)N(C)C(Cc1ccccc1)C(=O)NC(C(C)O)C(=O)N2 (stereo partly specified) (X2-T[d(aIle)][X3][ξNMeF][ξT][ξS]; ester 1-C; linker 3-6 via G)	false
C1=C2CCCN[C@H]2C2CC1[C@H]1CCCCN1C2 (stereo partly specified)	false
C/C=C1/CN2CC[C@@]34c5ccccc5N(C)[C@@H]3[C@@H]2C[C@@H]1[C@H]4C(=O)OC	false

Next up:
Test call, this molecule: C[C@]12CCC3[C@@H](CC[C@@H]4C[C@@H](O)CC[C@]34CO)[C@@]1(O)CC[C@@H]2C1=CC(=O)OC1 (stereo partly specified)
true
